The compounds listed here are annotated with their viability.
- Protocol Text: ovarian cancer cell viability with rucaparib, profiling panel, oncology-focused library, rucaparib conditional (AID 1508598)
- Test Parameters: patient-derived ovarian cancer cells, CellTiter-Glo viability, 144 h; at 0.00122 µM; OCI-P5x cells; with rucaparib 20 µM; stronger effect = lower value; 100% = cells with rucaparib alone
The reply should be a number in %, with the unit left off.

Compound: C[C@H](NC(=O)Cc1cc(F)cc(F)c1)C(=O)N[C@H](C(=O)OC(C)(C)C)c1ccccc1
Unit String: %
viability: 109

Compound: O=c1[nH]c(-c2ccc(C(F)(F)F)cc2)nc2c1CSCC2
Unit String: %
viability: 107

Compound: O=c1cc(N2CCOCC2)oc2c(-c3ccccc3)cccc12
Unit String: %
viability: 97.2

Compound: Cn1cc(C2=C(c3ccc(Cl)cc3Cl)C(=O)NC2=O)c2ccccc21
Unit String: %
viability: 107

Compound: O=C(O)Cc1cccc(OCCCN(Cc2cccc(C(F)(F)F)c2Cl)CC(c2ccccc2)c2ccccc2)c1
Unit String: %
viability: 108

Qu. Specify viability for NC(=O)Nc1sc(-c2ccc(F)cc2)cc1C(N)=O and stop.
Ans. 106

###

- System: F380Y/beta2Delta
- Protocol Text: modulators of BK channel variants, profiling panel, selectivity assay, cell-based, U2OS BacMam, thallium flux, beta subunits (AID 1259406);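 also: initial slope of Thallos dye fluorescence rise after thallium is added; log ratio against the mean of 0.3% DMSO vehicle wells on the same plate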
- Test Parameters: at 30 µM
Parameter log fold change Tl+ flux: see the listing below.
Just the number, please, no unit after it.

As a guide, the following entries are already answered.
Molecule: Cc1cc(C(=O)ON=C(N)c2ccc([N+](=O)[O-])o2)no1
log fold change Tl+ flux: 0.0122

Molecule: CC1c2cccc(O)c2C(O)=C2C(=O)C3(O)C(O)=C(C(N)=O)C(=O)C(N(C)C)C3C(O)C21 (stereo not drawn)
log fold change Tl+ flux: -0.0466

Molecule: CC(=O)OCC(=O)C1(O)C(C)CC2C3CCC4CC(=O)C=CC4(C)C3C(O)CC21C (stereo not drawn)
log fold change Tl+ flux: -0.017

Molecule: Cc1nn(Cc2nnn(CC(=O)NN=Cc3ccc(Cl)cc3)n2)c(C)c1Br
log fold change Tl+ flux: 0.00259

Molecule: O=C(NCC1CC1)c1ccccc1NS(=O)(=O)c1cccc2nonc12
log fold change Tl+ flux: 0.0491

Qu. Tell me measured log fold change Tl+ flux for Cc1ccc(-c2nc(N=CNOC(=O)c3ccc([N+](=O)[O-])cc3)sc2C)cc1Cl please.
Ans. 0.0425

Qu. Answer with reported log fold change Tl+ flux of Nc1nc(Cl)nc2c1ncn2[C@H]1C[C@H](O)[C@@H](CO)O1
Ans. -0.00452

Qu. Report log fold change Tl+ flux, nothing else, for this molecule: CC(C)NCC(O)c1ccc(NS(C)(=O)=O)cc1 (stereo not drawn)
Ans. 0.0277

Qu. Name the recorded log fold change Tl+ flux of the item Cc1nc(-c2ccc(C(F)(F)F)cc2)sc1CO in your answer.
Ans. 0.0517

Qu. # return recorded log fold change Tl+ flux for entry CC1(C)SC2C(NC(=O)C(N)c3ccccc3)C(=O)N2C1C(=O)O (stereo not drawn)
Ans. -0.029

Qu. Give me measured log fold change Tl+ flux, please, for this molecule: Cc1nnc(-c2ccccn2)[nH]c1=O
Ans. -0.0191

Qu. Item Cc1nn(C)c2ncc(C(N)=O)c(Oc3ccc(Cl)cc3)c12 : provide log fold change Tl+ flux
Ans. 0.0115

Qu. State its log fold change Tl+ flux for this molecule: CS(=O)(=O)NNc1c(Cl)cc(Cl)cc1Cl
Ans. -0.00312

###

- Protocol Text: Cy5 fluorescence quenching or enhancement artefacts, artefact control for HCV NS3 helicase inhibitor project, biochemical, LOPAC1280 (AID 687037)
- Test Parameters: Cy5-DNA-NS3h complex fluorescence interference counterscreen
Active and inactive are the calls of the source. The rule behind the calls is not given here.
Give one outcome, nothing more. List: 1.0 (active), 0.0 (inactive)

Compound: Brc1c(Br)c(Br)c2n[nH]nc2c1Br
Class Assignment: 0.0

Compound: COCc1nc2c([nH]1)c(=O)n(C)c(=O)n2CC(C)C
Class Assignment: 0.0

Compound: CC[N+](CC)(CC)CC(=O)Nc1c(C)cccc1C
Class Assignment: 0.0

Compound: Oc1cc2c(cc1O)CN(C(=S)NCCc1ccc(Cl)cc1)CCC2
Class Assignment: 0.0

Compound: c1ccc(C2CN3CCSC3=N2)cc1 (centres undefined)
Class Assignment: 0.0

Qu. Short answer needed: outcome of this test for CC(C)NC[C@H](O)COc1cccc2ccccc12 ?
Ans. 0.0

Qu. Name the outcome recorded for CCN(CC)CC#CCOC(=O)C(O)(c1ccccc1)C1CCCCC1 (centres undefined) in the assay.
Ans. 0.0

Qu. For CN=c1nc(-c2ccccc2)n(-c2ccccc2)s1 , which call appears in the assay record?
Ans. 0.0

Qu. Which result was noted for this compound in the test: CC1=C(C(=O)O)N2C(=O)[C@@H](NC(=O)C(N)c3ccccc3)[C@H]2SC1 (some centres undefined)
Ans. 0.0

Qu. Recorded call for C#C[C@]1(O)CC[C@H]2[C@@H]3CCC4=Cc5oncc5CC4(C)[C@H]3CCC21C (some centres undefined) ?
Ans. 0.0

Qu. Query: recorded result category for O=C1NC(=O)c2cc(Nc3ccccc3)c(Nc3ccccc3)cc21 in this test
Ans. 0.0

Qu. How was CN1C2CCCC1CC(NC(=O)c1nn(C)c3ccccc13)C2 (centres undefined) classified in this test?
Ans. 0.0

###

- Protocol Text: differential killing of epithelial or mesenchymal cells, primary screen, imaging, PC-3E GFP, TEM4-18 mCherry, co-culture (AID 1345086);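 also: cells exposed to compound for 72 h before imaging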
- Test Parameters: imaging cell counts, measured here: epithelial PC-3E GFP cell survival, at 1 µM
Measured normalised cell number by item
// return just the number, without any unit appended

Compound: NC(=O)c1c(Cl)nc(Cl)c2ccccc12
normalised cell number: 0.92

Compound: O=C(O)CC1OCc2c(O)cccc21 (stereo not given)
normalised cell number: 0.95

Compound: CCCCCCCCCCCCCc1ccco1
normalised cell number: 0.74

Compound: O=C(O)C1=CC(=C(c2ccc(O)c(C(=O)O)c2)c2ccc(O)c(C(=O)O)c2)C=CC1=O
normalised cell number: 1.19

Now examine the next entry.
Qu. Report measured normalised cell number; entry is O=C(O)c1cc(O)c2c(c1)[C@@H]([C@@H]1c3cc(C(=O)O)cc(O)c3C(=O)c3c(O[C@H]4O[C@H](CO)[C@@H](O)[C@H](O)[C@H]4O)cccc31)c1cccc(O[C@H]3O[C@H](CO)[C@@H](O)[C@H](O)[C@H]3O)c1C2=O
Ans. 1.02

###

- Test system: F380Y/beta2Delta
- Protocol Text: modulators of BK channel variants, profiling panel, selectivity assay, cell-based, U2OS BacMam, thallium flux, beta subunits (AID 1259406);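 also: initial slope of Thallos dye fluorescence rise after thallium is added; log ratio against the mean of 0.3% DMSO vehicle wells on the same plate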
- Test Parameters: at 30 µM
Numbered stars: 1 amine (or outer) side, 2 acyl side, 3 side chain; on linkers, the order of the positions; unused ones are H or OH. Bridge positions count the residues as written; N and C are the ends. Square brackets hold non-standard residues; d marks the D form. Peptide text beside a SMILES is read from it. I, II: the chains in the order shown. Actinocin(9to1) = Cc1c2oc3c(C)ccc(C(=O)[*:1])c3nc-2c(C(=O)[*:2])c(N)c1=O; NMeV = CN[CH](C(=O)O)C(C)C; Sar = CNCC(=O)O
Readout: log fold change Tl+ flux
Reply with just the number.

Below, 5 compounds whose answers are already recorded.
Compound: COc1ccc2[nH]c(S(=O)Cc3ncc(C)c(OC)c3C)nc2c1 (stereo unspecified)
Readout: log fold change Tl+ flux
Reported: -0.007
--
Compound: Cn1c(SCc2ccc(C(F)(F)F)cc2)nnc1C(F)(F)F
Readout: log fold change Tl+ flux
Reported: -0.0293
--
Compound: COc1cc(NC(=S)Nc2cccc(C)n2)c(OC)cc1Cl
Readout: log fold change Tl+ flux
Reported: 0.043
--
Compound: CSc1nc(N)nc(-c2cccs2)n1
Readout: log fold change Tl+ flux
Reported: 0.0165
--
Compound: Cc1c(Br)sc2sc(-c3ccnc(SCc4ccccc4)n3)c(C)c12
Readout: log fold change Tl+ flux
Reported: -0.00739

Qu. Give log fold change Tl+ flux for CCCCCCCCCCCC(=O)N1CC(=O)NC(=O)C1
Ans. -0.0133

Qu. Given the compound CO[C@H]1/C=C/O[C@@]2(C)Oc3c(C)c(O)c4c(O)c(c5c(c4c3C2=O)NC2(CCN(CC(C)C)CC2)N=5)=NC(=O)/C(C)=C\C=C\[C@H](C)[C@H](O)[C@@H](C)[C@@H](O)[C@@H](C)[C@H](OC(C)=O)[C@@H]1C , write its reported log fold change Tl+ flux.
Ans. -0.104

Qu. Give the reported log fold change Tl+ flux for this compound. C=C1/C(=C\C=C2/CCC[C@]3(C)[C@@H]([C@H](C)/C=C/[C@@H](O)C4CC4)CC[C@@H]23)C[C@@H](O)C[C@@H]1O
Ans. 0.0454

Qu. Tell me its log fold change Tl+ flux given CN1CCN2c3ncccc3Cc3ccccc3[C@@H]2C1 as the entry.
Ans. 0.0643

Qu. Let me know recorded log fold change Tl+ flux for O=C(NNC(=O)c1ccc2nonc2c1)c1cccc(C(F)(F)F)c1 , thanks.
Ans. 0.0509

Qu. Fill in log fold change Tl+ flux for record Cc1cc(C)n2nc(Sc3ncccc3[N+](=O)[O-])nc2n1
Ans. -0.0308

Qu. Identify measured log fold change Tl+ flux associated with NCC(O)c1ccc(O)c(O)c1 (stereo unspecified)
Ans. -0.00353

Qu. Determine its reported log fold change Tl+ flux: CC(=O)CSc1nc(SCC(C)=O)c2cnc(N3CCCC3)nc2n1
Ans. -0.00118

Qu. Fill in log fold change Tl+ flux for record CN(NC(=O)c1ccc(Cl)s1)c1cnn(-c2cc(Cl)cc(Cl)c2)c(=O)c1Cl
Ans. 0.019

Qu. Supply measured log fold change Tl+ flux of CN1CC(=O)N2[C@H](c3ccc4c(c3)OCO4)c3[nH]c4ccccc4c3C[C@@H]2C1=O in your reply.
Ans. 0.00366

Qu. Respond only with log fold change Tl+ flux recorded for CCCCN1CCCC1CNC(=O)c1cc(C#N)c2ccccc2c1OC (stereo unspecified)
Ans. -0.243

Qu. Look up and state reported log fold change Tl+ flux for O=C1CN(N=Cc2ccc([N+](=O)[O-])o2)C(=O)N1
Ans. -0.0429

Qu. Report log fold change Tl+ flux, nothing else, for this compound: O=C(C(=NN=Cc1ccc2c(c1)OCO2)c1ccccc1)c1ccccc1
Ans. -0.0268

Qu. For CCCc1nc(C(C)(C)O)c(C(=O)O)n1Cc1ccc(-c2ccccc2-c2nn[nH]n2)cc1 , write its log fold change Tl+ flux.
Ans. 0.0323

Qu. Return log fold change Tl+ flux (reported value) for this compound: CCC(=C(c1ccccc1)c1ccc(OCCN(C)C)cc1)c1ccccc1
Ans. -0.0174

Qu. Tell me its log fold change Tl+ flux given O=S(=O)(Nc1ccccc1SCc1ccc2nonc2c1)c1cccs1 as the entry.
Ans. -0.0553

Qu. Provide only the value of recorded log fold change Tl+ flux for CO[C@H]1C=CO[C@@]2(C)Oc3c(C)c(O)c4c(O)c(c5c(c4c3C2=O)NC2(CCN(CC(C)C)CC2)N=5)=NC(=O)C(C)=CC=C[C@H](C)[C@H](O)[C@@H](C)[C@@H](O)[C@@H](C)[C@H](OC(C)=O)[C@@H]1C
Ans. -0.052

Qu. Give the reported value of log fold change Tl+ flux for this record: NS(=O)(=O)c1cccc(NC(=O)c2cccnc2Oc2ccccc2)c1
Ans. 0.0103

Qu. Note log fold change Tl+ flux for the compound shown: CC(C)(C)OC(=O)N1CCC(c2nc(-c3ccc(Cl)s3)cs2)CC1
Ans. -0.0352

Qu. Tell me log fold change Tl+ flux reported for Cc1c(O)nc2ccccn2c1=O
Ans. 0.0329

Qu. Hello, please tell me recorded log fold change Tl+ flux for this one: CCCCCCCCCCCCSC(=S)NCC1CCCO1 (stereo unspecified)
Ans. 0.0128

Qu. Indicate its recorded log fold change Tl+ flux; the compound in question is Cc1c2oc3c(C)ccc(C(=O)NC4C(=O)NC(C(C)C)C(=O)N5CCCC5C(=O)N(C)CC(=O)N(C)C(C(C)C)C(=O)OC4C)c3nc-2c(C(=O)NC2C(=O)NC(C(C)C)C(=O)N3CCCC3C(=O)N(C)CC(=O)N(C)C(C(C)C)C(=O)OC2C)c(N)c1=O (stereo unspecified) (I: TVP[Sar][NMeV] / II: TVP[Sar][NMeV]; ester I:1-I:C, II:1-II:C; linker I:N-II:N via Actinocin(9to1); configuration not given here)
Ans. -0.0313

Qu. Look up log fold change Tl+ flux of CC1CC2C3CCC4=CC(=O)C=CC4(C)[C@@]3(Cl)C(O)CC2(C)C1(O)C(=O)CO (stereo partly specified) and report it.
Ans. -0.00287

Qu. Please indicate log fold change Tl+ flux recorded for CC(N)(Cc1ccc(O)c(O)c1)C(=O)O (stereo unspecified)
Ans. -0.0381

Qu. Please give the documented log fold change Tl+ flux of N=c1c(C(N)=O)cc2c(=O)n3ccccc3nc2n1Cc1ccco1
Ans. 0.0123

Qu. Fill in log fold change Tl+ flux for record COc1cc(CCC(C)NC(=O)c2ccc(C)cc2)ccc1OC(=O)c1ccc(C)cc1 (stereo unspecified)
Ans. -0.0421

Qu. Identify measured log fold change Tl+ flux associated with CC(=O)C1(O)CCC2C3CC(C)C4=CC(=O)C=CC4(C)C3(F)C(O)CC21C (stereo unspecified)
Ans. -0.0137
